Could you please report measured Population Tubulin-Different-Phenotype (%) for the items listed next?
test system: HEK-293T; assay: Multiplex assay against HEK293T; format: toxicity, cell-based; details: human, 12 h, 10 µM, compound concentration 10 uM, replicate 1;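 further: share of the cells with healthy nuclei that show this phenotype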

What the record says about COCC(=O)NC/C=C/c1ccc2ncnc(Nc3ccc(Oc4ccc(C)nc4)c(C)c3)c2c1 [CP-724714] : Population Tubulin-Different-Phenotype (%) is 100%

Query CCN1CCN(Cc2ccc(Nc3ncc(F)c(-c4cc(F)c5nc(C)n(C(C)C)c5c4)n3)nc2)CC1.CS(=O)(=O)O yields Population Tubulin-Different-Phenotype (%) of 66%

Entry C=C1/C(=C\C=C2/CCC[C@]3(C)[C@@H]([C@H](C)/C=C/[C@H](C)C(C)C)CC[C@@H]23)C[C@@H](O)C[C@@H]1O [DOXERCALCIFEROL] ; Population Tubulin-Different-Phenotype (%) = 34%

The reported Population Tubulin-Different-Phenotype (%) of the compound CNc1cc(Oc2cc(C(=O)Nc3cc(N4CCN(C)CC4)cc(C(F)(F)F)c3)ccc2C)ncn1 was 83%
